Each recorded value in this set is attributed to patent US4826973A.

Test: Physical and processing (bulk) properties of crystalline forms
Assay type: physicochemical
Settings: TABLE II, crystalline forms of aztreonam
Measured Endpoint: Density

• C[C@H]1[C@H](NC(=O)/C(=N\OC(C)(C)C(=O)O)c2csc(N)n2)C(=O)N1S(=O)(=O)O [β-Form] = high
• C[C@H]1[C@H](NC(=O)/C(=N\OC(C)(C)C(=O)O)c2csc(N)n2)C(=O)N1S(=O)(=O)O [γ-Form] = low
• C[C@H]1[C@H](NC(=O)/C(=N\OC(C)(C)C(=O)O)c2csc(N)n2)C(=O)N1S(=O)(=O)O [α-Form] = low
• C[C@H]1[C@H](NC(=O)/C(=N\OC(C)(C)C(=O)O)c2csc(N)n2)C(=O)N1S(=O)(=O)O [δ-Form] = high
